These measurements were taken from PubChem BioAssay (Tox21).

biological target: Cytochrome P450 2C19 (Homo sapiens); assay: Cytochrome P450 Family 2 Subfamily C Member 19 (CYP2C19) small molecule antagonists: luciferase reporter qHTS assay (AID 1671197); settings: P450-Glo CYP2C19 enzyme, luciferin luminescence, 1 h; series mostly up to 115 µM; further: nearly all actives have a fitted effect of over 65% in size
Records with an inconclusive call do not appear. Activity calls are given as the source filed them. The call rests on the fitted dose curve; in most records, active means well fitted inhibition curve with a large enough effect in the repeat runs; inconclusive means weak or mixed curves; inactive means no such curve, though single readings can be large or run the other way.
Select the matching outcome among yes (1) (active), no (0) (inactive)

Field: example entries. Status: answers known.
> print(dat)
                          compound  assignedcategory
1                      Nc1ccccc1Cl            no (0)
2  CSc1nc(N=[N+]=[N-])nc(NC(C)C)n1           yes (1)

What outcome does the record of this test show for c1cc2c(c(N3CCNCC3)c1)OCCO2 ?
no (0)

I'd appreciate the recorded outcome for CCN(CC)C(C)C(=O)c1ccccc1 (centres undefined) from this test.
no (0)

What is the recorded call for this compound in the test? O=C(Oc1ccc(Br)cc1)N1CCN2CCC1CC2
no (0)
